Origin of the recorded values: patent US20260048142A1

test system: 293T cells; assay: CCK8 cell activity, median lethal dose IC50; format: cell-based, Human; details: Table 2-2; median lethal dose for 293T cells, 48 hours, CCK8; read-out: IC50
observable: IC50 (µM)
Report the figure in µM without appending any unit label.

Please fill in: IC50 reported for CCCCCCCC/C=C\CCCCCCCC(=O)OCC(C[N+](C)(C)C)OC(=O)CCCCCCC/C=C\CCCCCCCC (stereo not shown) = 25.7

====

tested on: 293T cells; experiment: CCK8 cell activity, median lethal dose IC50; format: cell-based, Human; conditions: Homo sapiens, HEK-293T, 48 h
observable: IC50 (µM)
Form entry: value (µM) — number only.

Looking up CCCCCCCCC(CCCCCC)C(=O)OCCCCCCN(CCCCO)CCCCCCOC(=O)C(CCCCCC)CCCCCCCC (stereo not shown) , I see its IC50 listed as 115
